Where do the numbers come from? From patent US8343959B2.

Target: h-5-HT6 receptor (Homo sapiens)
Construct: expressed in transfected cells
Test: 5-HT6 receptor binding assay (displacement of [3H]-LSD)
Settings: membranes of HEK293 cells expressing h-5-HT6 receptor, 1 nM [3H]-LSD; read-out: Ki (5HT6)
Counter-ions that a name gives are not always drawn.
PROPERTY: Ki

QUERY: Can you share its Ki? I mean this compound: CCc1ccc(S(=O)(=O)Nc2cc(Cl)ccc2OC(F)F)cc1N1CCNCC1 [Example 61, hydrochloride]
RESULT: < 10 nM

QUERY: Now the compound COc1ccc(S(=O)(=O)Nc2cc(OC(F)F)ccc2C)cc1N1CCNCC1 [Example 59, hydrochloride]
RESULT: < 10 nM

QUERY: Now the compound CN(c1ccccc1OC(F)F)S(=O)(=O)c1cccc(N2CCNCC2)c1 [Example 43, hydrochloride]
RESULT: < 500 nM

QUERY: Now the compound CCN(c1ccc(OC)c(OC(F)F)c1)S(=O)(=O)c1ccc(OC)c(N2CCNCC2)c1 [Example 30, hydrochloride]
RESULT: < 10 nM

QUERY: Now the compound COc1ccc(S(=O)(=O)Nc2cccc3c2OC(F)(F)O3)cc1N1CCNCC1 [Example 40, hydrochloride]
RESULT: < 50 nM

QUERY: Now the compound Cc1ccc(NS(=O)(=O)c2ccc(C)c(N3CCCN(C)CC3)c2)cc1OC(F)F [Example 99, hydrochloride]
RESULT: < 500 nM

QUERY: Now the compound COc1ccc(S(=O)(=O)N(C)c2ccccc2OC(F)F)cc1N1CCNCC1 [Example 27, hydrochloride]
RESULT: < 50 nM

* * *

Biological target: h-5-HT6 receptor (Homo sapiens, UniProt P50406)
Construct: expressed in transfected cells
Sequence (P50406 whole entry): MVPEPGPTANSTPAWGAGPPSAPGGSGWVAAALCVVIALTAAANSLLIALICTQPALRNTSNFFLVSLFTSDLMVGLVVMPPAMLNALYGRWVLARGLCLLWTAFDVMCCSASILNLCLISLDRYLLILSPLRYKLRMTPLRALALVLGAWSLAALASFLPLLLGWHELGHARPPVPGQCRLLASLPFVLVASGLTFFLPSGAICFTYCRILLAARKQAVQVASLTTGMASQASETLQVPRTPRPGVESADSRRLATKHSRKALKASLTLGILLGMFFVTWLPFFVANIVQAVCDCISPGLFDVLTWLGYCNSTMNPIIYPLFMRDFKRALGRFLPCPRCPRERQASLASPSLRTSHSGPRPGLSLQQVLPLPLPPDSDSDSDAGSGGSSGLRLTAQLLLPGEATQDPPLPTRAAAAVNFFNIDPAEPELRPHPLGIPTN
Test: 5-HT6 receptor binding assay (displacement of [3H]-LSD)
Settings: membranes of HEK293 cells expressing h-5-HT6 receptor, 1 nM [3H]-LSD; read-out: Ki (5HT6)
pKi: −log10 of the molar value. Counter-ions that a name gives are not always drawn.
Assignment: determine reported pKi for the given molecules.

QUERY: Can you share its pKi? I mean this molecule: COc1ccc(S(=O)(=O)Nc2ccc(F)cc2OC(F)F)cc1N1CCNCC1 [Example 82, hydrochloride]
RESULT: > 8.00

QUERY: Now the molecule COc1cc(NS(=O)(=O)c2ccc(OC)c(N3CCNCC3)c2)ccc1OC(F)F [Example 93, hydrochloride]
RESULT: > 8.00

QUERY: Now the molecule CCN(c1cccc(OC(F)F)c1)S(=O)(=O)c1ccc(C)c(N2CCNCC2)c1 [Example 13, hydrochloride]
RESULT: > 7.30

QUERY: Now the molecule Cc1ccc(OC(F)F)c(NS(=O)(=O)c2ccc(C)c(N3CCN[C@@H](C)C3)c2)c1 [Example 64, hydrochloride]
RESULT: > 8.00

QUERY: Now the molecule CCN(c1cccc(OC(F)F)c1)S(=O)(=O)c1ccc(OC)c(N2CCNCC2)c1 [Example 29, hydrochloride]
RESULT: > 8.00

QUERY: Now the molecule CCc1ccc(S(=O)(=O)Nc2cc(C)ccc2OC(F)F)cc1N1CCNCC1 [Example 65, hydrochloride]
RESULT: > 8.00

QUERY: Now the molecule CN1CCN(c2cccc(S(=O)(=O)c3cccc(OC(F)F)c3)c2)CC1 [Example 46, hydrochloride]
RESULT: > 8.00

QUERY: Now the molecule CCN(c1ccccc1OC(F)F)S(=O)(=O)c1ccc(C)c(N2CCNCC2)c1 [Example 15, hydrochloride]
RESULT: > 6.30

QUERY: Now the molecule COc1ccc(OC(F)F)cc1NS(=O)(=O)c1ccc(C)c(N2CCN(C)CC2)c1 [Example 77, trifluoroacetate]
RESULT: > 7.30

QUERY: Now the molecule CCCN(c1cccc(OC(F)F)c1)S(=O)(=O)c1ccc(OC)c(N2CCNCC2)c1 [Example 34, hydrochloride]
RESULT: > 8.00

QUERY: Now the molecule CCc1ccc(S(=O)(=O)Nc2ccc(C)cc2OC(F)F)cc1N1CCNCC1 [Example 62, hydrochloride]
RESULT: > 8.00

QUERY: Now the molecule COc1ccc(S(=O)(=O)Nc2cc(Cl)ccc2OC(F)F)cc1N1CCNCC1 [Example 57, hydrochloride]
RESULT: > 8.00

QUERY: Now the molecule `CCc1ccc(S(=O)(=O)Nc2cc(C)ccc2OC(F)F)cc1N1CCN(C)CC1`
RESULT: > 8.00

QUERY: Now the molecule Cc1ccc(OC(F)F)c(NS(=O)(=O)c2ccc(C)c(N3CCN[C@H](C)C3)c2)c1 [Example 63, hydrochloride]
RESULT: > 8.00

QUERY: Now the molecule `CCOc1ccc(S(=O)(=O)Nc2ccc(C)cc2OC(F)F)cc1N1CCNCC1`
RESULT: > 8.00

QUERY: Now the molecule COc1ccc(OC(F)F)c(NS(=O)(=O)c2ccc(C)c(N3CCN(C)CC3)c2)c1 [Example 78, trifluoroacetate]
RESULT: > 7.30

QUERY: Now the molecule COc1ccc(NS(=O)(=O)c2ccc(C)c(N3CCN(C)CC3)c2)cc1OC(F)F [Example 86, hydrochloride]
RESULT: > 6.30

QUERY: Now the molecule CN1CCN(c2cccc(S(=O)(=O)Nc3ccccc3OC(F)F)c2)CC1 [Example 42, hydrochloride]
RESULT: > 8.00

QUERY: Now the molecule Cc1ccc(S(=O)(=O)Nc2ccc(OC(F)F)cc2)cc1N1CCN(C)CC1 [Example 88, hydrochloride]
RESULT: > 6.30

QUERY: Now the molecule Cc1ccc(S(=O)(=O)N(c2ccccc2OC(F)F)C(C)C)cc1N1CCNCC1 [Example 39, hydrochloride]
RESULT: > 6.30

QUERY: Now the molecule COc1ccc(S(=O)(=O)Nc2ccc(C)c(OC(F)F)c2)cc1N1CCN(C)CC1 [Example 89, hydrochloride]
RESULT: > 8.00

QUERY: Now the molecule COc1ccc(S(=O)(=O)Nc2ccc3c(c2)OC(F)(F)O3)cc1N1CCNCC1 [Example 83, hydrochloride]
RESULT: > 8.00

QUERY: Now the molecule COc1ccc(OC(F)F)c(NS(=O)(=O)c2ccc(C)c(N3CCNCC3)c2)c1 [Example 81, hydrochloride]
RESULT: > 7.30

QUERY: Now the molecule COc1ccc(S(=O)(=O)c2ccc(OC)c(N3CCNCC3)c2)cc1OC(F)F [Example 49, hydrochloride]
RESULT: > 8.00

QUERY: Now the molecule Cc1ccc(NS(=O)(=O)c2ccc(C)c(N3CCNCC3)c2)cc1OC(F)F [Example 6, hydrochloride]
RESULT: > 7.30

QUERY: Now the molecule COc1ccc(S(=O)(=O)Nc2cc(Cl)ccc2OC(F)F)cc1N1CCN(C)CC1 [Example 53, hydrochloride]
RESULT: > 8.00

QUERY: Now the molecule Cc1ccc(S(=O)(=O)N(C)c2cccc(OC(F)F)c2)cc1N1CCNCC1 [Example 14, hydrochloride]
RESULT: > 7.00

QUERY: Now the molecule COc1ccc(S(=O)(=O)Nc2cc(C)ccc2OC(F)F)cc1N1CCNCC1 [Example 72, hydrochloride]
RESULT: > 8.00

QUERY: Now the molecule COc1ccc(S(=O)(=O)Nc2ccc(C)cc2OC(F)F)cc1N1CCNCC1 [Example 73, hydrochloride]
RESULT: > 8.00

* * *

Assignment: determine reported Ki for the given molecules.
Molecular target: h-5-HT6 receptor (Homo sapiens, UniProt P50406)
Construct: expressed in transfected cells
Experiment: 5-HT6 receptor binding assay (displacement of [3H]-LSD)
Method: Displacement of Radioligands Binding to The Following Cloned Human Receptors Cells from stable clonal cell lines expressing the corresponding receptor (5-HT6, α1-adrenergic, dopamine D2 or histamine H1 receptors) were washed with PBS (w/o Ca^++, Mg^++) and harvested in PBS with 0.02% EDTA. […] Protein concentration was determined (BCA-Kit; Pierce) and aliquots stored at −80° C. or in liquid nitrogen for long-term storage. […]
Counter-ions that a name gives are not always drawn.

QUERY: Can you share its Ki? I mean this molecule: COc1ccc(S(=O)(=O)c2cccc(OC(F)F)c2)cc1N1CCNCC1 [Example 47, hydrochloride]
RESULT: < 10 nM

QUERY: Now the molecule Cc1ccc(S(=O)(=O)Nc2cccc(OC(F)F)c2)cc1N1CCNCC1 [Example 1, hydrochloride]
RESULT: < 10 nM

QUERY: Now the molecule Cc1ccc(S(=O)(=O)Nc2ccc(OC(F)F)cc2)cc1N1CCNCC1 [Example 7, hydrochloride]
RESULT: < 50 nM

QUERY: Now the molecule Cc1ccc(S(=O)(=O)Nc2ccccc2OC(F)F)cc1N1CCNCC1 [Example 17, hydrochloride]
RESULT: < 10 nM

* * *

Biological target: h-5-HT6 receptor (Homo sapiens, UniProt P50406)
Construct: expressed in transfected cells
Test: 5-HT6 receptor binding assay (displacement of [3H]-LSD)
Conditions: membranes of HEK293 cells expressing h-5-HT6 receptor, 1 nM [3H]-LSD; read-out: Ki (5HT6)
Method: Displacement of Radioligands Binding to The Following Cloned Human Receptors Cells from stable clonal cell lines expressing the corresponding receptor (5-HT6, α1-adrenergic, dopamine D2 or histamine H1 receptors) were washed with PBS (w/o Ca^++, Mg^++) and harvested in PBS with 0.02% EDTA. […] Protein concentration was determined (BCA-Kit; Pierce) and aliquots stored at −80° C. or in liquid nitrogen for long-term storage. […]
Where a name gives a salt, the structure may show the parent alone.
PROPERTY: Ki

QUERY: Please tell me: Ki of COc1ccc(N(C)S(=O)(=O)c2ccc(OC)c(N3CCNCC3)c2)cc1OC(F)F [Example 28, hydrochloride] , system h-5-HT6 receptor (Homo sapiens, UniProt P50406)?
RESULT: < 50 nM

QUERY: Now the compound Cc1ccc(NS(=O)(=O)c2ccc(C)c(N3CCN(C)CC3)c2)cc1OC(F)F [Example 75, hydrochloride]
RESULT: < 50 nM

QUERY: Now the compound Cc1ccc(S(=O)(=O)Nc2cccc(OC(F)F)c2)cc1N1CCCNCC1 [Example 96, hydrochloride]
RESULT: < 50 nM

QUERY: Now the compound COc1ccc(S(=O)(=O)Nc2ccc(OC(F)F)c(OC(F)F)c2)cc1N1CCNCC1 [Example 60, hydrochloride]
RESULT: < 10 nM

QUERY: Now the compound Cc1ccc(S(=O)(=O)Nc2cc(Cl)ccc2OC(F)F)cc1N1CCNCC1 [Example 71, hydrochloride]
RESULT: < 10 nM

QUERY: Now the compound COc1ccc(S(=O)(=O)Nc2ccc(OC(F)F)cc2)cc1N1CCN(C)CC1 [Example 95, hydrochloride]
RESULT: < 10 nM

QUERY: Now the compound COc1ccc(S(=O)(=O)Nc2ccc(F)cc2OC(F)F)cc1N1CCN(C)CC1 [Example 69, hydrochloride]
RESULT: < 10 nM
